Data origin: PubChem BioAssay (Tox21)

testDetails: qHTS assay to identify small molecule antagonists of the estrogen related receptor (ERR) signaling pathway from Tox21 library - cell viability counter screen (AID 1224834); note: nearly all actives have a fitted effect of over 30% in size
conditionInfo: ERR reporter cells viability, CellTiter-Fluor, 17.5 h; series mostly up to 92.4 µM
Records with an inconclusive call do not appear. Active and inactive are the calls of the source. Calls come from the whole dose curve; as a rule, active = well fitted cell-killing curve with a large enough effect in the repeat runs; inconclusive = weak or mixed curves; inactive = flat fitted curve, though single readings scatter.
measurementType: outcome

Reference set (5 entries):
compound | outcome
CCCCCCCCCCCOC(=O)c1ccccc1C(=O)OCCCCCCCCCCC | inactive
Oc1cc(Cl)ccc1Cl | inactive
N#CCCCl | inactive
ClC1C(Cl)C(Cl)C(Cl)C(Cl)C1Cl (stereo not given) | inactive
O=Cc1ccco1 | inactive

Name the recorded outcome for C=CC(=O)OCCO .
inactive

Continue with CCOC(=O)C(C)OC(=O)c1cc(Oc2ccc(C(F)(F)F)cc2Cl)ccc1[N+](=O)[O-] (stereo not given)
inactive

Then this compound: Clc1nc(Cl)nc(Cl)n1
inactive

Here is the next compound: CCCCC(CC)COC(=O)Cl (stereo not given)
inactive

Lookup C=CCN(CC=C)C(=O)C(Cl)Cl
inactive

Queued: Nc1ccncc1
inactive

----------
testDetails: Caspase-3/7 induction in HepG2 cells by small molecules, qHTS cell viability counter screen (AID 1346981); note: nearly all actives have a fitted effect of over 30% in size
conditionInfo: CellTiter-Fluor fluorescence, 17 h; series mostly up to 92.4 µM
Results filed as inconclusive are left out. Calls of active or inactive are those of the source. Calls follow the shape of the dose curve; as a rule, active = well fitted cell-killing curve with a large enough effect in the repeat runs; inconclusive = weak or mixed curves, or effect the other way; inactive = flat fitted curve, though single readings scatter.
Select the correct class. Options are class 1 = active, class 0 = inactive and nothing else.

Look up the recorded call for C=C(C)C(=O)OCC1CO1 (stereo not given) in this test.
class 0

Now try CCC(C)(c1ccc(O)cc1)c1ccc(O)cc1 .
class 0

Likewise for C1=Cc2cccc3cccc1c23 ?
class 0

Try this compound next: CCN(CC)C(=O)/C(Cl)=C(\C)OP(=O)(OC)OC
class 0

CCC(=O)O[C@H]1CC[C@H]2[C@@H]3CCC4=CC(=O)CC[C@]4(C)[C@H]3CC[C@]12C ?
class 0

# repeat for CNC(=O)N(C)c1nnc(C(C)(C)C)s1
class 0

Then what about the compound O=S(=O)(Oc1ccc(Cl)cc1)c1ccc(Cl)cc1 ?
class 0

Also Oc1c(Cl)c(Cl)c(Cl)c(Cl)c1Cl ?
class 0

Further, for COc1ccc(C(CN(C)C)C2(O)CCCCC2)cc1 (stereo not given) ?
class 0

Let us now turn to C=CC(=O)OCCO
class 0

Can you handle O=Cc1ccco1 next?
class 0

Try this compound next: NCc1cccnc1
class 0

Can you handle CCCCN(CCCC)N=O next?
class 0

# repeat for CCCCN(CC)c1c([N+](=O)[O-])cc(C(F)(F)F)cc1[N+](=O)[O-]
class 0

What do you get for CC(O)CCO (stereo not given) ?
class 0

Also check COP(=S)(OC)Oc1ccc([N+](=O)[O-])cc1
class 0

Further, for CNC(=O)Oc1cccc2c1OC(C)(C)O2 ?
class 0

Another compound to check: CCCCCCCCOC(=O)c1ccccc1C(=O)OCCCCCCCC
class 0

Now the same for COP(=S)(OC)Oc1cc(Cl)c(Cl)cc1Cl
class 0

What about this compound? Oc1cc(Cl)ccc1Cl
class 0

Param item: CN(C)c1ccc(C(=O)c2ccc(N(C)C)cc2)cc1
class 1

Try the compound CC(C)=CC1C(C(=O)OCc2coc(Cc3ccccc3)c2)C1(C)C (stereo not given)
class 0

Now consider CCC(CC)Nc1c([N+](=O)[O-])cc(C)c(C)c1[N+](=O)[O-] and answer again.
class 0

Input C#C[C@]1(O)CC[C@H]2[C@@H]3CCC4=CC(=O)CC[C@]4(C)[C@H]3CC[C@@]21C
class 0

Moving on to ClC1C(Cl)C(Cl)C(Cl)C(Cl)C1Cl (stereo not given)
class 0

How about CCc1cccc(CC)c1N(COC)C(=O)CCl ?
class 0

Another compound to look at: COc1ccc(C=O)cc1
class 0

Moving on to the next compound: C=CCc1ccc2c(c1)OCO2
class 0

Queued: Nc1ccncc1
class 0

Then this compound: c1ccc(-c2cccc(-c3ccccc3)c2)cc1
class 0

----------
testDetails: qHTS assay to test for compound auto fluorescence at 535 nm (green) in HepG2 cell free culture (AID 720686)
conditionInfo: Cell-free medium, green autofluorescence 485/535 nm; series mostly up to 91.3 µM
Activity calls are given as the source filed them. Calls follow the shape of the dose curve; as a rule, active = well fitted curve in the direction sought with a large enough effect in the repeat runs; inconclusive = weak or mixed curves; inactive = flat fitted curve, though single readings scatter.
measurementType: outcome

compound | outcome
CCN(CC)N=O | inactive
N[C@@H](Cc1ccc(N(CCCl)CCCl)cc1)C(=O)O | inactive
CCCCCCCCCCCOC(=O)c1ccccc1C(=O)OCCCCCCCCCCC | inactive
C=CCc1ccc(OC)cc1 | inactive
O=C(CCl)c1ccccc1 | inactive

Request the reported outcome associated with O=[N+]([O-])c1cccc2ccccc12
inactive

# repeat for N#CC(Br)Br
inactive

----------
testDetails: qHTS assay to identify small molecule agonists of the peroxisome proliferator-activated receptor delta (PPARd) signaling pathway - cell viability counter screen (AID 743211); note: nearly all actives have a fitted effect of over 55% in size
conditionInfo: PPARd-bla HEK293H viability, CellTiter-Glo luminescence, 17 h; series mostly up to 62.6 µM
Inconclusive results are not listed. The source made the active and inactive calls. Calls come from the whole dose curve; as a rule, active = well fitted cell-killing curve with a large enough effect in the repeat runs; inconclusive = weak or mixed curves; inactive = no such curve, though single readings can be large or run the other way.
Classes to choose from: Y (active), N (inactive)

Record lookup: outcome of this test for CCCCCc1cc(O)cc(O)c1 ?
N

Repeat with C=C(C)C(=O)OCC1CO1 (stereo not drawn)
N

Then O=[N+]([O-])c1ccc(O)c([N+](=O)[O-])c1 ?
N

Lookup CCOCN(C(=O)CCl)c1c(C)cccc1CC
Y

Note, next up: Nc1ccc(Cl)c(Cl)c1
N

And what about the compound COC(=O)c1sccc1S(=O)(=O)NC(=O)Nc1nc(C)nc(OC)n1 ?
N

Again, but for N#CCCCl
N

Similarly, CC(C)(OOC(C)(C)c1ccccc1)c1ccccc1 ?
N

COc1ccc(C(CN(C)C)C2(O)CCCCC2)cc1 (stereo not drawn) , same question.
N

Ok, now Brc1ccc(Oc2cc(Br)c(Br)cc2Br)c(Br)c1
Y

Continue with C=C(C)[C@H]1Cc2c(ccc3c2O[C@@H]2COc4cc(OC)c(OC)cc4[C@@H]2C3=O)O1
N

Now this one: CC(C)C(=O)OCC(C)(C)C(OC(=O)C(C)C)C(C)C (stereo not drawn)
N

Queued: CN(C)C(=O)Nc1ccc(Cl)cc1
N

Next compound up: CCCCCCCCC(=O)NCc1ccc(O)c(OC)c1
N

Thanks! And CCCCCCCCOC(=O)c1ccccc1C(=O)OCCCCCCCC ?
N

Continue with COc1ccc(C=O)cc1
N

Query CC(C)Oc1cc(-n2nc(C(C)(C)C)oc2=O)c(Cl)cc1Cl next
Y

Okay, and Clc1nc(Cl)nc(Cl)n1 ?
N

And what about the compound c1ccc(N=Nc2ccccc2)cc1 ?
N

Same for CC(O)CCO (stereo not drawn)
N

Also check CCCCCCCCCCCOC(=O)c1ccccc1C(=O)OCCCCCCCCCCC
N

Another compound to check: CCOc1cc(C=O)ccc1O
N

Repeat with C[C@]12CCC(=O)C(O)=C1CC[C@@H]1[C@@H]2CC[C@]2(C)C(=O)CC[C@@H]12
N

Cool, now CC1(C)C(C=C(Cl)Cl)C1C(=O)OC(C#N)c1cccc(Oc2ccccc2)c1 (stereo not drawn)
N

Please give the result for C=CCN(CC=C)C(=O)C(Cl)Cl too.
N

What would you report for COP(=S)(OC)Oc1cc(Cl)c(Cl)cc1Cl ?
N

Also check CC(C)c1ccc(CO)cc1
N

Same thing, different compound: N#Cc1cc(Br)c(O)c(Br)c1
N

----------
testDetails: qHTS assay for identifying genotoxic compounds that show differential cytotoxicity against isogenic chicken DT40 cell lines with known DNA damage response pathways - Rad54/Ku70 mutant cell line (AID 743015); note: nearly all actives have a fitted effect of over 60% in size
conditionInfo: DT40 Rad54/Ku70 mutant viability, CellTiter-Glo, 40 h; series mostly up to 66.8 µM
Inconclusive results are not listed. Calls of active or inactive are those of the source. The call rests on the fitted dose curve; in most records, active means well fitted cell-killing curve with a large enough effect in the repeat runs; inconclusive means weak or mixed curves; inactive means no such curve, though single readings can be large or run the other way.
Your response should consist of one outcome taken from active, inactive

GET /call?item= CCCCCCOC(=O)c1ccccc1C(=O)OCCCCCC returns the recorded outcome of this test.
inactive

What do you get for C#C[C@]1(O)CC[C@H]2[C@@H]3CCC4=CC(=O)CC[C@]4(C)[C@H]3CC[C@@]21C ?
inactive

Also CCN(CC)N=O , if possible.
inactive

Consider next the compound CCCCC(CC)COC(=O)Cl (stereo unspecified) in the same way.
inactive

Then what about the compound C=CCc1ccc(OC)cc1 ?
inactive

Follow-up item: Cc1cc(C)cc(C)c1
inactive

Please give the result for CCCCC(CC)COC(=O)c1ccc(C(=O)OCC(CC)CCCC)c(C(=O)OCC(CC)CCCC)c1 (stereo unspecified) too.
inactive

Oc1ccc(-c2ccccc2)cc1 ?
inactive

Same again, this time with COP(=O)(OC)OC
inactive

Can you check CCCCCCCCCCCOC(=O)c1ccccc1C(=O)OCCCCCCCCCCC next?
inactive

Please do the same for S=C1NCCN1 as well.
inactive

Then what about the compound O=C(O)CC[N+](=O)[O-] ?
inactive

Another compound: CC(C)(C)c1ccccc1O
inactive

What about Nc1ccc(Cl)cc1N ?
active

How about CC(C)c1ccc(CO)cc1 ?
inactive

And Nn1cnnc1 ?
inactive

Also need C=CCc1ccc2c(c1)OCO2 , thanks.
inactive

Another compound to look at: Nc1ccncc1
inactive

Would you mind doing CCOc1cc(Oc2ccc(C(F)(F)F)cc2Cl)ccc1[N+](=O)[O-] as well?
active

Continue with Nc1ccc(Cl)c(Cl)c1
inactive

Please do the same for CC1(C)C(C=C(Cl)Cl)C1C(=O)OC(C#N)c1cccc(Oc2ccccc2)c1 (stereo unspecified) as well.
active

Similarly, CNC(=O)N(C)c1nnc(C(C)(C)C)s1 ?
inactive

Please do the same for C1=Cc2cccc3cccc1c23 as well.
inactive

What about NCc1cccnc1 ?
inactive

Same question for O=C(CCl)c1ccccc1 please.
active

Next compound: O=C(NC(=O)c1c(F)cccc1F)Nc1ccc(Cl)cc1
inactive

Similarly, Oc1cc(Cl)ccc1Cl ?
inactive

Can you handle CCOC(=O)C(C)OC(=O)c1cc(Oc2ccc(C(F)(F)F)cc2Cl)ccc1[N+](=O)[O-] (stereo unspecified) next?
active

Again, but for CC(C)(c1cc(Cl)c(O)c(Cl)c1)c1cc(Cl)c(O)c(Cl)c1
inactive

CC(C)(OOC(C)(C)c1ccccc1)c1ccccc1 , same question.
active

Likewise for COc1ccc(C(CN(C)C)C2(O)CCCCC2)cc1 (stereo unspecified) ?
inactive
